Assay: Selectivity index, ratio of IC50 for human MCF10 cells to IC50 for human HL60 cells
Type: toxicity
Settings: MCF10 cells versus HL60 cells, read-out: Ratio IC50

[
  {
    "STRUCTURE SMILES STRING": "CCOC(=O)C1(C(=O)OCC)Cc2cc(OCc3ccccc3)cc(OCc3ccccc3)c2C=N1",
    "selectivity ratio": "4 to 8"
  }
]

====

System: MV4-11
Assay: Antiproliferative activity against human MV411 cells
Format: functional, cell-based
pIC50: −log10 of the molar value.
PROPERTY MEASURED: pIC50

[
  {
    "STRUCTURE SMILES STRING": "CCOC(=O)C1(C(=O)OCC)Cc2cc(OCc3ccccc3)cc(OCc3ccccc3)c2C=N1",
    "EXPERIMENTAL VALUE": 4.19
  }
]

====

System: HL60/MX2
Assay: Antiproliferative activity against human HL60/MX2 cells at 290 uM after 72 hrs by MTT assay
Format: functional, cell-based
Calls of active or inactive are those of the source. No cut-off for these calls is given here.
PROPERTY MEASURED: growth inhibition (GI)

[
  {
    "COMPOUND": "O=C(O)C1Cc2cc(O)cc(O)c2C=N1 (stereo not drawn)",
    "EXPERIMENTAL VALUE": "inactive"
  },
  {
    "COMPOUND": "O=C(O)C1Cc2cc(O)c(O)c(Br)c2C=N1 (stereo not drawn)",
    "EXPERIMENTAL VALUE": "inactive"
  },
  {
    "COMPOUND": "O=C(O)C1Cc2cc(O)c(O)cc2C=N1 (stereo not drawn)",
    "EXPERIMENTAL VALUE": "inactive"
  }
]

====

Assay: Selectivity index, ratio of IC50 for mouse BALB/3T3 cells to IC50 for human HL60 cells
Format: toxicity
Settings: BALB/3T3 cells versus HL60 cells, read-out: Ratio IC50

[
  {
    "STRUCTURE SMILES STRING": "CCOC(=O)C1(C(=O)OCC)Cc2cc(OCc3ccccc3)cc(OCc3ccccc3)c2C=N1",
    "selectivity ratio": 5.8
  }
]

====

Test: Selectivity index, ratio of IC50 for mouse BALB/3T3 cells to IC50 for human PC3 cells
Assay type: toxicity
Details: BALB/3T3 cells versus PC3 cells, read-out: Ratio IC50
PROPERTY MEASURED: selectivity ratio

[
  {
    "STRUCTURE SMILES STRING": "CCOC(=O)C1(C(=O)OCC)Cc2cc(OCc3ccccc3)cc(OCc3ccccc3)c2C=N1",
    "PROPERTY MEASURED": "selectivity ratio",
    "EXPERIMENTAL VALUE": 8.5
  }
]

====

Test: Selectivity index, ratio of IC50 for mouse BALB/3T3 cells to IC50 for human LoVo/DX cells
Assay type: toxicity
Conditions: BALB/3T3 cells versus LoVo/DX cells, read-out: Ratio IC50

[
  {
    "STRUCTURE SMILES STRING": "CCOC(=O)C1(C(=O)OCC)Cc2cc(OCc3ccccc3)cc(OCc3ccccc3)c2C=N1",
    "selectivity ratio": 8.8
  }
]

====

Test: Selectivity index, ratio of IC50 for mouse BALB/3T3 cells to IC50 for human LNCAP cells
Type: toxicity
Conditions: BALB/3T3 cells versus LNCAP cells, read-out: Ratio IC50
PROPERTY MEASURED: selectivity ratio

[
  {
    "STRUCTURE SMILES STRING": "CCOC(=O)C1(C(=O)OCC)Cc2cc(OCc3ccccc3)cc(OCc3ccccc3)c2C=N1",
    "EXPERIMENTAL VALUE": 10.9
  }
]

====

Test system: A498
Experiment: Antiproliferative activity against human A498 cells
Format: functional, cell-based

[
  {
    "STRUCTURE SMILES STRING": "CCOC(=O)C1(C(=O)OCC)Cc2cc(OCc3ccccc3)cc(OCc3ccccc3)c2C=N1",
    "TESTED SYSTEM": "A498",
    "IC50, µM": 13.3
  }
]

====

System: LNCaP
Assay: Antiproliferative activity against human LNCAP cells
Type: functional, cell-based

[
  {
    "STRUCTURE SMILES STRING": "CCOC(=O)C1(C(=O)OCC)Cc2cc(OCc3ccccc3)cc(OCc3ccccc3)c2C=N1",
    "UNIT DESCRIPTOR": "µM",
    "IC50": 3.3
  }
]

====

Tested on: MCF10
Experiment: Antiproliferative activity against human MCF10 cells after 72 hrs by SRB assay
Format: cell-based
Settings: MCF10, 72 h
PROPERTY MEASURED: IC50 (µM)

[
  {
    "COMPOUND": "O=C(O)C1Cc2cc(O)c(O)c(I)c2C=N1 (configuration not stated)",
    "UNIT DESCRIPTOR": "µM",
    "EXPERIMENTAL VALUE": 897
  },
  {
    "COMPOUND": "O=C(O)C1Cc2cc(O)c(O)c(O)c2C=N1 (configuration not stated)",
    "UNIT DESCRIPTOR": "µM",
    "EXPERIMENTAL VALUE": 249
  },
  {
    "COMPOUND": "C[C@@]1(C(=O)O)Cc2cc(O)c(O)cc2C2C(Cl)C(=O)N21 (some centres not stated)",
    "UNIT DESCRIPTOR": "µM",
    "EXPERIMENTAL VALUE": 1960
  },
  {
    "COMPOUND": "O=C(O)C1CCc2cc(O)c(O)cc2C=N1 (configuration not stated)",
    "UNIT DESCRIPTOR": "µM",
    "EXPERIMENTAL VALUE": 3330
  },
  {
    "COMPOUND": "CCOC(=O)C1(C(=O)OCC)Cc2cc(OCc3ccccc3)cc(OCc3ccccc3)c2C=N1",
    "UNIT DESCRIPTOR": "µM",
    "EXPERIMENTAL VALUE": 40.2
  },
  {
    "COMPOUND": "O=C(O)C1Cc2c(O)c(O)cc(Br)c2C=N1 (configuration not stated)",
    "UNIT DESCRIPTOR": "µM",
    "EXPERIMENTAL VALUE": 1440
  },
  {
    "COMPOUND": "O=C(O)C1Cc2cc(O)c(O)c(Br)c2C=N1 (configuration not stated)",
    "UNIT DESCRIPTOR": "µM",
    "EXPERIMENTAL VALUE": 904
  }
]

====

Experiment: Selectivity index, ratio of IC50 for mouse BALB/3T3 cells to IC50 for human CEM/C2 cells
Assay type: toxicity
Conditions: BALB/3T3 cells versus CEM/C2 cells, read-out: Ratio IC50

[
  {
    "STRUCTURE SMILES STRING": "CCOC(=O)C1(C(=O)OCC)Cc2cc(OCc3ccccc3)cc(OCc3ccccc3)c2C=N1",
    "selectivity ratio": 89.7
  }
]

====

Assay: Selectivity index, ratio of IC50 for mouse BALB/3T3 cells to IC50 for human Jurkat cells
Assay type: toxicity
Conditions: BALB/3T3 cells versus Jurkat cells, read-out: Ratio IC50
PROPERTY MEASURED: selectivity ratio

[
  {
    "STRUCTURE SMILES STRING": "CCOC(=O)C1(C(=O)OCC)Cc2cc(OCc3ccccc3)cc(OCc3ccccc3)c2C=N1",
    "EXPERIMENTAL VALUE": 2.5
  }
]

====

Test system: Raji
Experiment: Antiproliferative activity against human Raji cells
Assay type: functional, cell-based

[
  {
    "STRUCTURE SMILES STRING": "CCOC(=O)C1(C(=O)OCC)Cc2cc(OCc3ccccc3)cc(OCc3ccccc3)c2C=N1",
    "IC50": "600 nM"
  }
]

====

Test: Selectivity index, ratio of IC50 for mouse BALB/3T3 cells to IC50 for human HL60/MX2 cells
Format: toxicity
Settings: BALB/3T3 cells versus HL60/MX2 cells, read-out: Ratio IC50

[
  {
    "STRUCTURE SMILES STRING": "CCOC(=O)C1(C(=O)OCC)Cc2cc(OCc3ccccc3)cc(OCc3ccccc3)c2C=N1",
    "selectivity ratio": 7
  }
]

====

Test: Antiproliferative activity against mouse BALB/3T3 cells at 290 uM after 72 hrs by SRB assay
Format: cell-based
Conditions: BALB/3T3 cells, read-out: GI

[
  {
    "STRUCTURE SMILES STRING": "CC(C)C[C@H](NC(=O)[C@@H](O)[C@H](N)Cc1ccccc1)C(=O)O",
    "inhibition at 72 h, 290 µM, %": 37.7
  }
]

====

Assay: Antiproliferative activity against human MCF10 cells at 290 uM after 72 hrs by SRB assay
Format: cell-based
Conditions: MCF10 cells, read-out: GI

[
  {
    "COMPOUND": "CC(C)C[C@H](NC(=O)[C@@H](O)[C@H](N)Cc1ccccc1)C(=O)O [UBENIMEX]",
    "inhibition at 72 h, 290 µM, %": 26.9
  }
]
